Item-by-item account of kon
# target_of_assay: T1, AahII toxin of Androctonus australis hector (Androctonus australis hector, UniProt P01484 20-83)
# T1 construct: mature; also called Aahll
# T1 sequence: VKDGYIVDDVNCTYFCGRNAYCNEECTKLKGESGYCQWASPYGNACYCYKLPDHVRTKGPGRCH
# assay_comment: SPR (BIAcore), AahII immobilised on CM5 chip, Nb in mobile phase
Express it in M⁻¹ s⁻¹; write the number only.

binder: NbAahII05 (VHH, also called cluster G) VHH: QVQLQESGGGSVQAGGSLRLSCAASGYTCTKFNMGWYRQAPGKQREFVASIRRDSTIYYGDSVKGRFTISQDNAKNMVYLQMTSLKPEDSAMYYCSTRCLTSSVPYWGQGTQVTVSS
property_name: kon
observed: 2.77e+06
--
binder: NbAahII41 (VHH, also called cluster I) VHH: QVQLVESGGGSVQAGGSLRLSCAASGFDFSIYVMSWVRQAPGKGLEWISGIMPSGQTTYADAVKGRFTISRDNAKNTLYLQLNSLKTEDTAIYYCAKGVYTKYVGGARGQGTQVTVSS
property_name: kon
observed: 4.33e+06
--
binder: NbAahII38 (VHH, also called cluster H) VHH: DVQLVESGGGLVQPGGSLRLSCAASGFTFSNYVMSWVRQAPGKGLEWVSGINHGGGIQDYADSVKGRFTISRDNAKNTLYLQLNSLKIEDTAMYYCVRASHYRDYGPTIYSWGQGTQVTVSS
property_name: kon
observed: 10200

Let us move to another entry and its kon.
Can you share its kon? I mean this binder: NbAahII20 (VHH, Purified from E. coli periplasm with His6; also called NbAahIKO (I); cluster I) VHH: QVQLQESGGGLVQPGGSLRLSCTASGFDFSRYVMSWVRQAPGKDFEWISGIMPLSSAGTTYADAVKGRFTISRDNAKNTLYLQLNNLKTEDTAIYYCAKGVYTTYIGGARGQGTQVTVSS
8.18e+06
